# Test summary: yeast display, Sf9 membrane polyspecificity reagent, FACS + sequencing; frameworks hold sequencing errors
Reported property: polyreactivity (PSR sort gate)

Primary sequence	Observed result
QVQLVESGGGLVQAGGSLRLSCAASGIIFEYYDRGWYRQAPGKERELVAAIDSGGSTYYADSVKGRFTISRDNAKNTVYLQMNSLKPEDTAVYYCAAETVRYDWGESPAALFDYWGQGTQVTVSS	low polyreactivity
QVQLVESGGGLVQAGGSLRLSCAASGRIFTSNAMGWYRQAPGKERELVAAINRSGGRTYYADSVKGRFTISRDNAKNTVYLQMNSLKPEDTAVYYCNKVPYVFGFAASDYWGQGTQVTVSS	high polyreactivity
QVQLVESGGGLVQAGGSLRLSCAASGFTFRYYAMGWDRQAPGKERDWVAAITRRGGSTYYSDSVKGRFTISRDNAKNTVYLLMNSLKPEDTAVYYCAASLWTTSADYDYWGQGTQVTVSS	high polyreactivity
QVQLVESGGGLVQAGGSLRLSCAASGRIFPTYTMGWYRQAPGKERELVAHINRGGGSTYYADSVKGRFTISRDNAKYTVYLQMNSLKPEDTAVYYCAVDTYAYRGVSYWSERTYYYWGQGTQVTVSS	low polyreactivity
QVQLVESGGGLVQSGGSLRLSCAASGITFDYYDMGWYRQAPGKERELVATITSDGSTTYADSVKGRFTISRDNAKNTVYLQMNSLKPEDTAVYYCDKRYWSYQYGYRMYYWGQGTQVTVSS	high polyreactivity
QVQLVESGGGLVQAGGSLRLSCAASRFIFSVYTMGSYIQAPGKERELVAAISSGPSTTYADSVKGRFTISRDNAKNTVYLQMNSLKPEDTAVYYCARRDGTTQALFGYDYWGLGTQVTVSS	low polyreactivity
QVQLVESGGGLVQAGGSLRLSCAASGITFGRNTMGWSRQAPGKERELVAAIDSGANTYADSVKGRFTISSDNAKNTVYLQMISLKPEDSAVYYCAVDGGEFSSYGYWGQGTQVTVSW	low polyreactivity
QGQLVESGGGLVQAGGSLRLSSAASGSTFAHYAMGWYRQAPGKERELVAAISRGGGSTYYADSVKGRFTISRDNAKNTVYVQMNSLKPEDTAVYYCAADPRYRVTLGFDYWGQGTQVTVSS	high polyreactivity
QVQLVESGGGLVQAGGSLRLSCAASGSTFWANAMGWYRQAPGKERELVAAITSTGITYYADSVKGRFTISRDNAKNTVYLQMNSLKPEDTAVYYCNTRGTYRYDYWGQGTQVTVSS	low polyreactivity
QVQLVESGGGLVQAGGSLRLSCAASGITFVYYAMGWYRQAPGNERELVATIDRSGTSTYYADSVKGRFTISRDNAKNTVVLQMTSLKQEDTAVYDCNAHRYAFYQYYRRMDYWGKGTQVTVSS	high polyreactivity
QVQLVESGGGLVQAGGSLRLSCAASGLIFRPYTMGWYRQAPGKERELVAAINFSGGNTYYADSVKGRFTISRDNAKNTVYLQMNSLKPEDTAVYYCATKSFYGYYYWPYGYWGQGTQVTVSS	low polyreactivity

----------
# Test summary: yeast display, Sf9 membrane polyspecificity reagent, FACS + sequencing; frameworks hold sequencing errors
Reported property: polyreactivity (PSR sort gate)

Primary sequence	Observed result
QVQLVESGGGLVQAGGSLRLSCAASGRTFQSYAMGRYRQGPGKEREFVAVISRSGGDTYYADSVKGRFTISRDNAKNTVYLLMNSLKPEDTAVYYCARGYTWFYADCPEYDYWGQGTQVTVSS	high polyreactivity
HVQLVESGGGLVQAGGSLRLSCAASGRSFYKYAMGWYRQAPGKERELVAAISLRGARTYYADSVKGRFTISRDNATNTVYLQMHSLKPEETAVYYCAADNYYVRYAYNKSYSWGQGTQVTGSS	low polyreactivity
QVQLVESGGGLVQAGGSLRLSCAASGSIFAGNAMGWYRQAPAKERELVAAISRRGGSTYYADSVKGRFTISRDNAKNTVYLQMNSLKPEDTAVSYCNALLRYAYHAAYGYWGQGTQVTVSS	high polyreactivity
QVQLVESGGGLVQAGGSLRLSCAASGFIFRSYAMGWYRQAPGKERELVAAISDGGGSTYYADSVKGRFTISRDNAKKTVYLQMNSLKPEDTAVYYCNAVYHPKGPSGYGYWGQGTQVTVSS	low polyreactivity
QVQLVESGGGLVQAGGSLRLSCAASGLIFYYYAMGWYRQAPGKERELVAAITRGGRTYYADSVKGRFTISRDNAKNTVYLQMNSLKPEDTAVYYCNTVSVKSGLDYWGQGTQVTVSS	high polyreactivity
QVQLVESGGGLVQAGGSLRLSCAASGSTFSYNAMGWYRQAPGKERELVAAISGSGGTTYYADSVKGRFTISRDNAKNTVYLQMNSLKPEDTAVYYCAARPFRSWRYDYWGQGTQVTVSS	low polyreactivity
QVQLVESGGVLVQAAGSLRLSCAASGRIFGYNAMGWYRQAPGSERDFVAAISPSGGSTYYADSLKGLFTISRDNAKITVYLQMNSLKPEDTGVYYCAARIGYRSWAWDAYEYWGQGTQVTVSS	low polyreactivity
QDKLVDSGGGLVQAGGSLRLSCAASGFIFGKYTMVWYRQAPGKERELVAAINRRGGSTYYADSVKGRFTISRDNAKNTVYLQMNSLKPEDTAVYYCAKDGYSLDRYYWGQGTQVTVSS	high polyreactivity
QVQLVESGGGLVQAGGSLRLSCAASGRIGYYAMGWYRQAPGKERELVAAISYGGGSTYYADSVKGRFTISRDNAKNTVYLQMNSLKPEDTAVYYCAARWGISWRGYGYWGQGTQVTVSS	high polyreactivity
QVQLVESGGGLVQAGGSLRLSSAASGRIFYGYAMGWYRQAPGKERELVAGISYRGARTYYADSVKGRFTISRDNAKNTVYLQMNSLKPEDTAVYYCNAVPYYPFAFGALDYWGQGTQVTVSS	high polyreactivity
QVQLQESGGGLVQAGGSLRLSCAASGSIFHLHIMCWYRQAPGKERESVAAISNGTSTYYADSVKGRFTICRDNAKNTVYLQMNSPKPDDTAVYYCAALFLVSKHHHYWGEGTQVTVSS	low polyreactivity
